// reported DC50 per item
Experimental system: BTK (Homo sapiens, UniProt Q06187)
Construct: endogenous in cells; host or cells: Ramos cells
Sequence (Q06187 whole entry): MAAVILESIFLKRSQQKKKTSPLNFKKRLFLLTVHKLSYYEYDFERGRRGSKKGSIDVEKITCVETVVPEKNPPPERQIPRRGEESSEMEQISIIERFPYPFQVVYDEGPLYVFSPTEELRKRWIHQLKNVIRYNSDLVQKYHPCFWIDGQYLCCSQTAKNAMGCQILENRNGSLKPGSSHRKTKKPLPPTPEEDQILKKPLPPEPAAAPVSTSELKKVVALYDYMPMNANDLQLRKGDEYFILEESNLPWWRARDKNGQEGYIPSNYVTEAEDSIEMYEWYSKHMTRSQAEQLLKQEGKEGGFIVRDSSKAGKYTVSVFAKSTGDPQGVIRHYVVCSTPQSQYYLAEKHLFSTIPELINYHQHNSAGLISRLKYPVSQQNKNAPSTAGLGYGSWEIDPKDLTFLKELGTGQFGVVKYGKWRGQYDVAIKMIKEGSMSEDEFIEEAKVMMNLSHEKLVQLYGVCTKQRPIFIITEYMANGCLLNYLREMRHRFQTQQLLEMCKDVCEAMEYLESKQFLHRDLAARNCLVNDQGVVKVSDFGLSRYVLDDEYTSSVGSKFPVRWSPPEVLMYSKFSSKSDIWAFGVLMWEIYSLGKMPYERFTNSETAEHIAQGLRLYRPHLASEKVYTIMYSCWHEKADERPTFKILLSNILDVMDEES
Test protocol: BTK cell degradation in Ramos cells (total BTK ELISA)
Assay type: cell-based
Experimental conditions: 16 h incubation, FastScan total BTK ELISA

Example compounds with recorded DC50:
Quick one: DC50 of NC(=O)c1c(-c2ccc(Oc3ccccc3)cc2)nn2c1NCC[C@H]2C1CCN(C(=O)CCCc2ccc(N3CCN(c4ccc5c(c4)C(=O)N(C4CCC(=O)NC4=O)C5=O)CC3)cc2)CC1 (stereo partly drawn) ?
> 10000 nM

Quick one: DC50 of NC(=O)c1c(-c2ccc(Oc3ccccc3)cc2)nn2c1NCC[C@H]2C1CCN(C(=O)c2cn(CCOCCOCCOCCNc3cccc4c3C(=O)N(C3CCC(=O)NC3=O)C4=O)nn2)CC1 (stereo partly drawn) ?
128 nM

Quick one: DC50 of NC(=O)c1c(-c2ccc(Oc3ccccc3)cc2)nn2c1NCC[C@H]2C1CCN(C(=O)c2cn(CCOCCOCCOCCOCCOCCOCCNc3cccc4c3C(=O)N(C3CCC(=O)NC3=O)C4=O)nn2)CC1 (stereo partly drawn) ?
107 nM

Quick one: DC50 of NC(=O)c1c(-c2ccc(Oc3ccccc3)cc2)nn2c1NCC[C@H]2C1CCN(C(=O)c2cn(CCOCCOCCOCCCc3cccc4c3CN(C3CCC(=O)NC3=O)C4=O)nn2)CC1 (stereo partly drawn) ?
242 nM

Quick one: DC50 of NC(=O)c1c(-c2ccc(Oc3ccccc3)cc2)nn2c1NCC[C@H]2C1CCN(C(=O)CCc2ccc(NC(=O)CNc3ccc4c(c3)C(=O)N(C3CCC(=O)NC3=O)C4=O)cc2)CC1 (stereo partly drawn) ?
> 10000 nM

Let us examine a further case.
Quick one: DC50 of NC(=O)c1c(-c2ccc(Oc3ccccc3)cc2)nn2c1NCC[C@H]2C1CCN(C(=O)CCCC2CCC(N3CCN(c4ccc5c(c4)C(=O)N(C4CCC(=O)NC4=O)C5=O)CC3)CC2)CC1 (stereo partly drawn) ?
205 nM
